Source of measurements: patent US10336762B2

Tested on: TNFα
test: cells
Format: cell-based, human
conditions: Homo sapiens, Monocyte, LPS-stimulated human monocytes, TNFα content; read-out: EC50 TNF
reported_endpoint: pEC50
Entry type: numeric. Quantity: pEC50, the -log10 of concentration in molar units.

The cases that follow already have their pEC50 on record.
INSERT INTO measurements (compound, measured_result) VALUES
  ('CC(C)Nc1cc(-c2ccc3cc(C#N)cnn23)ncc1C(=O)NC[C@@H](F)C(C)(C)F [Example 531]', 7.47),
  ('CC(C)(O)[C@H](F)CNC(=O)c1cnc(-c2ccc3cc(C#N)cnn23)cc1Nc1cnc(N2CCOCC2)nc1 [Example 671]', 7.66);

Lookup result for CCS(=O)(=O)CCCNc1cc(-c2ccc3cc(C#N)cnn23)ncc1C(=O)NC[C@@H](F)C(C)(C)O [Example 439] ; measured pEC50: 7.40

Lookup result for N#Cc1cnn2c(-c3cc(NC45CCC(O)(CC4)CC5)c(C(=O)NCc4ccc[nH]c4=O)cn3)ccc2c1 [Example 624] ; measured pEC50: 5.78

Lookup result for N#Cc1cnn2c(-c3cc(NC45CCC(O)(CC4)CC5)c(C(=O)NCC4(F)CCC4)cn3)ccc2c1 [Example 739] ; measured pEC50: 6.56

Lookup result for CC(C)(O)[C@H](F)CNC(=O)c1cnc(-c2ccc3cc(C#N)cnn23)cc1Nc1ccc(N2CC(F)(F)C2)nc1 [Example 682] ; measured pEC50: 7.66

Lookup result for CC(=O)NC12CCC(NC(=O)c3cnc(-c4ccc5cc(C#N)cnn45)cc3NC(C)C)(CC1)CC2 [Example 131] ; measured pEC50: 6.81

Lookup result for CC1(C)CC(Nc2cc(-c3ccc4cc(C#N)cnn34)ncc2C(=O)NC[C@@H](F)C(C)(C)O)CCO1 (stereo partly shown) [Example 81] ; measured pEC50: 6.87

Lookup result for CNC(=O)c1cnc(-c2ccc3cc(C#N)cnn23)cc1NC12CCC(C(=O)N3CCC3)(CC1)CC2 [Example 484] ; measured pEC50: 7.20

Lookup result for COC(=O)N(C)C[C@H]1C[C@H](Nc2cc(-c3ccc4cc(C#N)cnn34)ncc2C(=O)NC[C@@H](F)C(C)(C)O)C1 [Example 620] ; measured pEC50: 7.27

Lookup result for CC(C)(C)OC(=O)N[C@H]1CC[C@H](Nc2cc(-c3ccc4cc(C#N)cnn34)ncc2C(=O)NC[C@@H](F)C(C)(C)O)CC1 [Example 305] ; measured pEC50: 6.47

Lookup result for CC(C)(O)[C@H](F)CNC(=O)c1cnc(-c2ccc3cc(C#N)cnn23)cc1N[C@]1(C)C[C@H](O)C1 [Example 433] ; measured pEC50: 7.33

Lookup result for C#CCNC(=O)c1cnc(-c2ccc3cc(C#N)cnn23)cc1NC12CCC(O)(CC1)CC2 [Example 623] ; measured pEC50: 7.20

Lookup result for CC(C)(O)[C@H](F)CNC(=O)c1cnc(-c2ccc3cc(C#N)cnn23)cc1Nc1cccc(-c2ncc[nH]2)c1 [Example 221] ; measured pEC50: 7.01

Lookup result for CC(=O)NC1(c2ccc(Nc3cc(-c4ccc5cc(C#N)cnn45)ncc3C(=O)NC[C@@H](F)C(C)(C)O)cc2)CC1 [Example 211] ; measured pEC50: 7.30

Lookup result for CC(C)Nc1cc(-c2ccc3cc(C#N)cnn23)ncc1C(=O)N[C@H]1C[C@@](C)(O)C1 [Example 120] ; measured pEC50: 6.37

Lookup result for CC(=O)NCC12CC(Nc3cc(-c4ccc5cc(C#N)cnn45)ncc3C(=O)NC[C@@H](F)C(C)(C)O)(C1)C2 [Example 546] ; measured pEC50: 7.05

Lookup result for CC(C)(O)[C@H](F)CNC(=O)c1cnc(-c2ccc3cc(C#N)cnn23)cc1N[C@H]1CC[C@@H](O)C1 [Example 520] ; measured pEC50: 7.35

Lookup result for CC(C)(O)[C@H](F)CNC(=O)c1cnc(-c2ccc3cc(C#N)cnn23)cc1Nc1ccc2[nH]ccc2c1 [Example 576] ; measured pEC50: 7.68

Lookup result for CC(C)OC(=O)N[C@H]1CC[C@H](Nc2cc(-c3ccc4cc(C#N)cnn34)ncc2C(=O)NC[C@@H](F)C(C)(C)O)CC1 [Example 291] ; measured pEC50: 7.05

Lookup result for CC(C)Nc1cc(-c2ccc3cc(C#N)cnn23)ncc1C(=O)NC1CCC(C)(O)CC1 (stereo not shown) [Example 90] ; measured pEC50: 6.38

Lookup result for COC(=O)NC(C)(C)CCNc1cc(-c2ccc3cc(C#N)cnn23)ncc1C(=O)NC[C@@H](F)C(C)(C)O [Example 727] ; measured pEC50: 6.69

Lookup result for CC(C)(O)[C@H](F)CNC(=O)c1cnc(-c2ccc3cc(C#N)cnn23)cc1NC12CCC(NC(=O)C3CC3)(CC1)CC2 [Example 281] ; measured pEC50: 7.43

Lookup result for CC1(Nc2cc(-c3ccc4cc(C#N)cnn34)ncc2C(=O)NC[C@@H](F)C(C)(C)O)COC1 [Example 1] ; measured pEC50: 7.49

Lookup result for CC(C)(O)[C@H](F)CNC(=O)c1cnc(-c2ccc3cc(C#N)cnn23)cc1NCCc1ccc(F)cc1 [Example 707] ; measured pEC50: 7.38

Lookup result for CC(=O)NC(C)(C)c1ccc(Nc2cc(-c3ccc4cc(C#N)cnn34)ncc2C(=O)NC[C@@H](F)C(C)(C)O)cc1 [Example 215] ; measured pEC50: 7.28

Lookup result for CC(C)(O)[C@H](F)CNC(=O)c1cnc(-c2ccc3cc(C#N)cnn23)cc1NC12CCC(F)(CC1)CC2 [Example 503] ; measured pEC50: 7.34

====

tested_target: IRAK4 enzyme (Homo sapiens (Human))
test: biochemical
Type: biochemical
conditions: IRAK4 enzyme, TR-FRET, 500 μM ATP
Below, each entry is listed alongside its reported IC50.
Give the number; nM is assumed, so skip it.

Here CC(C)(O)[C@H](F)CNC(=O)c1cnc(-c2ccc3cc(C#N)cnn23)cc1NC1CN(S(C)(=O)=O)C1 was tested on IRAK4 enzyme (Homo sapiens (Human)), and its IC50 came to 2

Here COC(=O)NC12CCC(Nc3cc(-c4ccc5cc(C#N)cnn45)ncc3C(=O)NC3CCC(NC(=O)C4CC4)CC3)(CC1)CC2 (centres unmarked) was tested on IRAK4 enzyme (Homo sapiens (Human)), and its IC50 came to 1

Here CC(C)(C)c1cc(Nc2cc(-c3ccc4cc(C#N)cnn34)ncc2C(=O)NC[C@@H](F)C(C)(C)O)on1 was tested on IRAK4 enzyme (Homo sapiens (Human)), and its IC50 came to 2

Here COC(=O)N1CCOC[C@@H]1CNc1cc(-c2ccc3cc(C#N)cnn23)ncc1C(=O)NC[C@@H](F)C(C)(C)O was tested on IRAK4 enzyme (Homo sapiens (Human)), and its IC50 came to 37

Here CC(C)(O)[C@H](F)CNC(=O)c1cnc(-c2ccc3cc(C#N)cnn23)cc1Nc1ccc(CN2CCCC2=O)cc1 was tested on IRAK4 enzyme (Homo sapiens (Human)), and its IC50 came to 1

====

tested_target: IRAK4 enzyme (Homo sapiens (Human), UniProt Q9NWZ3)
Sequence (Q9NWZ3 whole entry): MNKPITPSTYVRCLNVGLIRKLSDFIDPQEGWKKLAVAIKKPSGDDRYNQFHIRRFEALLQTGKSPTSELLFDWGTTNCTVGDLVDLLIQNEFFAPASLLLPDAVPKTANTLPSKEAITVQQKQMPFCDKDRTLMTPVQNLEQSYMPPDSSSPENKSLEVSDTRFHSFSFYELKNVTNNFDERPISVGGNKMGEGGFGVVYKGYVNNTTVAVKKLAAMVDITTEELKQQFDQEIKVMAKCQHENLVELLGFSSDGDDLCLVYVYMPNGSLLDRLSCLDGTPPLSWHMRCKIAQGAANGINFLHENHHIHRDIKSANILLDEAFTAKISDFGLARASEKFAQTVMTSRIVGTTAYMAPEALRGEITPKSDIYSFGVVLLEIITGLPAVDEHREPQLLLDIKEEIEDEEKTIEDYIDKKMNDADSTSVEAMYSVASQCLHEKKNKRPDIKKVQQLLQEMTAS
test: biochemical
Format: biochemical
conditions: IRAK4 enzyme, TR-FRET (HTRF), 500 μM ATP
reported_endpoint: pIC50
Entry type: numeric. Quantity: pIC50, the -log10 of concentration in molar units.

INSERT INTO assay_data (compound, measured_result) VALUES
  ('CNC(=O)c1cnc(-c2ccc3cc(C#N)cnn23)cc1NC12CCC(C(=O)N3CCC3)(CC1)CC2 [Example 484]', 9.00),
  ('N#Cc1cnn2c(-c3cc(NC45CCC(O)(CC4)CC5)c(C(=O)NCC(=O)N4CCN(C5COC5)CC4)cn3)ccc2c1 [Example 796]', 8.70);

Here CC(C)(O)[C@H](F)CNC(=O)c1cnc(-c2ccc3cc(C#N)cnn23)cc1N[C@]1(C)C[C@@H](O)C1 [Example 429] was tested on IRAK4 enzyme (Homo sapiens (Human), UniProt Q9NWZ3), and its pIC50 came to 9.00

Here CC(C)(O)[C@H](F)CNC(=O)c1cnc(-c2ccc3cc(C#N)cnn23)cc1NC12CCC(C(=O)N3CC(F)C3)(CC1)CC2 [Example 400] was tested on IRAK4 enzyme (Homo sapiens (Human), UniProt Q9NWZ3), and its pIC50 came to 9.00

Here COC(=O)NC1CC2(C1)CC(Nc1cc(-c3ccc4cc(C#N)cnn34)ncc1C(=O)NC[C@@H](F)C(C)(C)O)C2 (single isomer, unassigned) [Example 756] was tested on IRAK4 enzyme (Homo sapiens (Human), UniProt Q9NWZ3), and its pIC50 came to 9.00

Here Cc1cc(Nc2cc(-c3ccc4cc(C#N)cnn34)ncc2C(=O)NC[C@@H](F)C(C)(C)O)ncc1C#N [Example 585] was tested on IRAK4 enzyme (Homo sapiens (Human), UniProt Q9NWZ3), and its pIC50 came to 8.70

====

System: TNFα
test: cells
Assay type: cell-based, human
conditions: Homo sapiens, Monocyte, LPS-stimulated human monocytes, TNFα content; read-out: EC50 TNF
reported_endpoint: pEC50
Entry type: numeric. Quantity: pEC50, the -log10 of concentration in molar units.

The cases that follow already have their pEC50 on record.
INSERT INTO assay_data (compound, reported_endpoint, measured_result) VALUES
  ('COC(=O)NC12CC(Nc3cc(-c4ccc5cc(C#N)cnn45)ncc3C(=O)NCC#N)(C1)C2', 'pEC50', 7.29),
  ('COc1ccc(Nc2cc(-c3ccc4cc(C#N)cnn34)ncc2C(=O)NC[C@@H](F)C(C)(C)O)cn1', 'pEC50', 7.15),
  ('CCOC(=O)NC[C@H]1C[C@H](Nc2cc(-c3ccc4cc(C#N)cnn34)ncc2C(=O)NC[C@@H](F)C(C)(C)O)C1', 'pEC50', 7.92),
  ('COC(=O)CNC(=O)c1cnc(-c2ccc3cc(C#N)cnn23)cc1NC12CCC(O)(CC1)CC2', 'pEC50', 7.80),
  ('CC(C)Nc1cc(-c2ccc3cc(C#N)cnn23)ncc1C(=O)NC1CC1CO (stereo not shown) [Example 45]', 'pEC50', 6.59),
  ('CC(C)(O)[C@H](F)CNC(=O)c1cnc(-c2ccc3cc(C#N)cnn23)cc1N[C@H]1CC[C@@H](N)C1', 'pEC50', 6.44);

Attention now shifts to the item below.
Lookup result for CCOC(=O)N[C@H]1CC[C@H](Nc2cc(-c3ccc4cc(C#N)cnn34)ncc2C(=O)NC[C@@H](F)C(C)(C)O)CC1 ; measured pEC50: 7.43
